Tested on: kochia (Kochia scoparia)
method.notes: Test C postemergence greenhouse test, plant response rating 0-100
Format: in vivo
assay.conditions: 125 g ai/ha
Source text: […]
quantity.measured: Plant response rating (0 to 100), Kochia
Give bare numbers.

Give measured Plant response rating (0 to 100), Kochia for every item shown.
1. CCOC(OCC)(c1cccs1)c1c[nH]nc1-c1cc(Cl)cc(Cl)c1
2. CCn1cc(C(=NN2CCCC2)c2ccccc2)c(-c2cc(Cl)cc(Cl)c2)n1

[A]
80
15

Give measured Plant response rating (0 to 100), Kochia for every item shown.
1. O=C(c1cncc(F)c1)c1c[nH]nc1-c1cc(Cl)cc(Cl)c1
2. Cn1cc(C(=O)c2ccccc2)c(-c2cc(Br)cc(Br)c2)n1
3. CCn1cc(C(=O)c2cccs2)c(-c2cc(Cl)cc(Cl)c2)n1

[A]
[85, 45, 40]

----------
Kindly state Plant response rating (0 to 100 scale), Pigweed for each of the entries shown.
System: pigweed (Amaranthus retroflexus)
method.notes: Test A pre-/postemergence greenhouse herbicide test, visual injury rating 0-100
Type: in vivo
assay.conditions: Preemergence, 500 g ai/ha
Answers are plain numbers.

• O=C(c1ccccc1)c1cn(C(=O)Cc2ccccc2)nc1-c1cc(Cl)cc(Cl)c1 = 90

Give measured Plant response rating (0 to 100 scale), Pigweed for every item shown.
1. C#CCn1cc(C(=O)c2cccnc2)c(-c2cc(Cl)cc(Cl)c2)n1
2. CCn1cc(C(=NN2CCCC2)c2ccccc2)c(-c2cc(Cl)cc(Cl)c2)n1

[A]
[90, 90]

Value source: patent US10167262B2
